outcome_measure: melting point

* NC(=O)C1CCCc2ccc(-c3ccccc3)nc21 (centres undefined) | 145 °C
* Cc1cc(Br)ccc1NC(=O)CC(=O)Sc1ccccc1 | 133 to 135 °C
* O=c1[nH]c2ccccc2c(=O)c(Cc2ccccc2)c1O | 199 to 200 °C
* [O-][N+](=CCCc1ccccc1)C1CCCCC1 | 97.2 °C

* * *

Quick reference for melting point among some compounds
outcome_measure: melting point

• Cc1oc2ccc(NC(=O)c3ccccc3)nc2c1CCN(C)C = 119 to 120 °C
• CCC(=NOCC=CCl)C1=C(O)CC(c2ccc(NS(C)(=O)=O)cc2)CC1=O (stereo not given) = 125 to 127 °C
• Cc1cccc(N2Cc3nc(C(=O)O)nn3-c3ccccc32)c1C = 195 to 197 °C
• CCc1n[nH]c(CC)c1CCCCCCOc1cc(Cl)c(OC)cc1Cl = 148 to 150 °C
• O=c1cc(CCl)nc2sc(-c3ccccc3)nn12 = 201 to 202 °C
• O=C(NCc1cccc(C(F)(F)F)c1)c1ccc2n1Cc1ccccc1N(C(=O)CSc1ccc(Br)cc1)C2 = 102 °C
• Cc1c(C(=O)CCl)c(C)n(C)c1C(=O)c1ccc(Cl)cc1Cl = 100 to 102 °C
• O=C(OCCc1ccccc1)ON1C(=O)CCC1=O = 69 to 72 °C
• COc1cccc(Cn2c(C)c(CC(=O)O)c3cc(OCc4csc(-c5ccccc5)n4)ccc32)c1 = 162 to 163 °C
• CSCC1Cn2cc(C(=O)NCc3ccc(Cl)cc3)c(=O)c3cc(CN4CCOCC4)cc(c32)O1 (stereo not given) = 190 to 191 °C
• COc1cc(Cc2cnc(N)nc2N)cc(Br)c1OC = 204 to 205 °C
• Cc1cccc(-c2nc3ccc(Cl)cn3c2-c2ccnc(-c3ccc(CN4CCCC4)cc3)c2)n1 = 134 °C
• Brc1ccc2nc(COc3ccc(CCCn4ccnc4)cc3)cn2c1 = 103 to 104 °C
• C#CC(O)(c1ccccc1)c1ccc([N+](=O)[O-])cc1 (stereo not given) = 88 to 89 °C
• COC(=O)c1cc(OCc2cccc(Cl)c2)ccc1OCCCC#N = 97 to 98 °C
• CC(C)C(CO)NC(=O)c1nsc2ccc(-n3c(=O)cc(C(F)(F)F)n(C)c3=O)cc12 (stereo not given) = 120 °C
• CCCCCCN1c2ccccc2NC(=O)c2cscc21 = 112 to 113 °C
• CSc1nc(N2CCN(CCCCN3C(=O)CC4(CCCC4)CC3=O)CC2)ncc1F = 83 to 85 °C
• Cc1cc2c(cc1CO)CCC(CCN1CCCC1)=C2 = 76 to 77 °C
• O=C1N[C@H](C(=O)NCCO)CS1 = 116 to 118 °C

* * *

Reported melting point by item:
outcome_measure: melting point

- COc1ccc(C(=O)COC(=O)NC(C)C)cc1: 121 to 122 °C
- COC(=O)c1c(-c2ccccc2Cl)c2cc(C)c(C)cc2[nH]c1=O: 288 to 289 °C
- CC1(C)COC1(Cn1cncn1)c1ccc(F)cc1F (centres undefined): 76 to 78 °C
- COc1cc2c(cc1Nc1ncc(Cl)c(Nc3ccccc3S(=O)(=O)N3CCC(O)C3)n1)CCNC(=O)C2 (centres undefined): 86 to 97 °C
